molecular target: MK2 (Homo sapiens); test: MK2 degradation in human SW1353 cells (MSD, 24 h); assay type: cell-based; set-up: endogenous in cells; host or cells: SW-1353 (ATCC HTB-94); conditions: read-out: MK2 MSD SW 1353 24 h Dmax %
readoutType: Dmax

C[C@@H]1CN(C)c2c(sc3ccc4nc(-c5cccc(N6CCC(CN7CCN(c8cccc9c(N%10CCC(=O)NC%10=O)cncc89)CC7)CC6)c5)ccc4c23)C(=O)N1; < 50%

Go through the items and report each one's Dmax.
1. C[C@@H]1CNc2c(sc3ccc4nc(N5C[C@H]6CC[C@@H]5CN6CC5CCN(c6cccc7c6n(C)c(=O)n7C6CCC(=O)NC6=O)CC5)ccc4c23)C(=O)N1 (stereo partly shown)
2. CCc1cc(-c2ccc3c(ccc4sc5c(c43)NC[C@@H](C)NC5=O)n2)cc(N2CCN(CC3CCN(c4ccc5c(c4)n(C)c(=O)n5C4CCC(=O)NC4=O)CC3)CC2)c1 (stereo partly shown)
3. Cn1c(=O)n(C2CCC(=O)NC2=O)c2cccc(N3CC(N4CCN(c5ccc(-c6cc(-c7cc8c([nH]7)C7(CCCC7)CNC8=O)ccn6)cc5)CC4)C3)c21 (stereo not shown)
4. C[C@@H]1Cc2oc(-c3ccnc(-c4ccc(N5CCN(CC6CCN(c7ccc8c(c7)n(C)c(=O)n8C7CCC(=O)NC7=O)CC6)CC5)cc4)c3)cc2C(=O)N1 (stereo partly shown)
5. C[C@@H]1CNc2c(sc3ccc4nc(-c5ccc(N6CCN(CCCCCCCCc7cccc8c7n(C)c(=O)n8C7CCC(=O)NC7=O)CC6)cc5)ccc4c23)C(=O)N1 (stereo partly shown)
6. Cn1c(=O)n(C2CCC(=O)NC2=O)c2ccc(N3CCC(CN4CCN(c5ccc(-c6cc(-c7cc8c([nH]7)CCNC8=O)ccn6)cc5)CC4)CC3)cc21 (stereo not shown)

Result:
["50 to 75%", "> 75%", "> 75%", "< 50%", "> 75%", "> 75%"]

* * *

Target: MK2 (Homo sapiens, UniProt P49137)
Sequence (P49137 whole entry): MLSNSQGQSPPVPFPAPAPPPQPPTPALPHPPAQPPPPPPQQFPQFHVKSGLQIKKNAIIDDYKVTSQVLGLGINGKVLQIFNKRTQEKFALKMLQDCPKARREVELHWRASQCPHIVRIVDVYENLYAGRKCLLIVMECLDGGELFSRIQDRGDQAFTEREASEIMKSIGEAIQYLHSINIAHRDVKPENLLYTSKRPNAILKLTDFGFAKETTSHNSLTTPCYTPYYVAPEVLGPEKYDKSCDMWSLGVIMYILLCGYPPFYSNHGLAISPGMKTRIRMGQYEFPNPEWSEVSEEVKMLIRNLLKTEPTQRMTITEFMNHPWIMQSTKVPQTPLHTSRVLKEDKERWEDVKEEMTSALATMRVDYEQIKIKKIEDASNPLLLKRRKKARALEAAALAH
Experiment: MK2 degradation in human SW1353 cells (MSD, 24 h)
Type: cell-based
Design: endogenous in cells; host or cells: SW-1353 (ATCC HTB-94)
Details: read-out: MK2 MSD SW1353 degradation 24 h GMean External Abs DC50
Method: MK2 Degradation in Human SW1353 Cells […] After 3 more washes, the secondary detection antibody (SULFO-Tag anti rabbit antibody R32AB-5) was added at a final concentration of 1 microgram per ml at 25 microlitres per well and shaken at room temperature for 1 hour at 600 rpm. After 3 more washes, the 1×MSD (diluted from 5× concentrate with water) reading buffer was added at 150 microlitres per well and read on the MSD instrument Meso Sector S 600. […]
readoutType: DC50

Guide cases for DC50, answers given:
O=C1CCN(c2cncc3c(N4CCC(CN5CCN(c6ccc(-c7cc(-c8cc9c([nH]8)C8(CC8)CNC9=O)ccn7)cc6)CC5)CC4)cccc23)C(=O)N1 [Compound I-211]; 0.01 to 0.1 µM
C[C@@H]1CNc2c(sc3ccc4nc(N5CCCN(CC6CCN(c7ccc8c(c7)n(C)c(=O)n8C7CCC(=O)NC7=O)CC6)CC5)ccc4c23)C(=O)N1 (stereo partly drawn) [Compound I-446]; > 0.1 µM
Cn1c(=O)n(C2CCC(=O)NC2=O)c2cccc(N3CCC(CCN4CCN(c5ccc(-c6cc(-c7cc8c([nH]7)CCNC8=O)ccn6)cc5)CC4)CC3)c21 (stereo not drawn) [Compound I-139]; 0.001 to 0.01 µM

State recorded DC50 for all listed compounds.
1. Cn1c(=O)n(C2CCC(=O)NC2=O)c2ccc(N3CC(CN4CCN(c5ccc(-c6cc(-c7cc8c([nH]7)C7(CCCC7)CNC8=O)ccn6)cc5)CC4)C3)cc21 (stereo not drawn) [Compound I-415]
2. COc1ccc2c(c1N1CCN(CC3CCN(c4ccc(-c5ccc6c(ccc7sc8c(c76)NC[C@@H](C)NC8=O)n5)cn4)CC3)CC1)n(C)c(=O)n2C1CCC(=O)NC1=O (stereo partly drawn) [Compound I-256]

Result:
["< 0.001 µM", "< 0.001 µM"]

Request: Hello, please tell me recorded DC50 for this one: C[C@@H]1CNc2c(sc3ccc4nc(-c5ccc(N6CCC(CN7CCN(c8ccc9c(c8)CN(C8CCC(=O)NC8=O)C9=O)CC7)CC6)cc5)ccc4c23)C(=O)N1 (stereo partly drawn) [Compound I-313]
Result: 0.001 to 0.01 µM
